Let's look at some molecules and their measured half-life at 1 μM.
- EXPERIMENTAL DETAILS: High-throughput single time point substrate depletion microsomal stability assay
- Assay type: in vitro ADME
- CONDITION PARAMETERS: Sprague-Dawley, rat liver microsomes; control compounds; mean ± S.D across 600 plates; 0.5 mg/mL rat microsomal protein, 1.0 μM drug, NADPH regeneration system, pH 7.4, 37 °C, 15 min; t1/2 capped at 30 min

Record excerpt, results attached:
1. O=C(O)Cc1ccccc1Nc1c(Cl)cccc1Cl ... 11.4 min
2. CC(C)NCC(O)COc1cccc2ccccc12 (stereo not shown) ... 1.4 min

Field request: half-life at 1 μM | item: NC(=O)N1c2ccccc2C=Cc2ccccc21 [Carbamazepine, carbamazepine]
> 30 min

Field request: half-life at 1 μM | item: `O=C1CC2(CCCC2)CC(=O)N1CCCCN1CCN(c2ncccn2)CC1`
3.8 min

---

- EXPERIMENTAL DETAILS: High-throughput single time point substrate depletion microsomal stability assay
- Assay type: in vitro ADME
- CONDITION PARAMETERS: Sprague-Dawley, microsomes; control compounds; mean ± S.D across 600 plates; 0.5 mg/mL rat microsomal protein, 1.0 μM drug, NADPH regeneration system, pH 7.4, 37 °C, 15 min; t1/2 capped at 30 min
READOUT TYPE: half-life at 1 μM

Field request: half-life at 1 μM | item: Cc1cc(=O)n(-c2ccccc2)n1C [Antipyrine, antipyrine]
> 30 min
